B1: Azoarcus group I ribozyme (parent)
chain: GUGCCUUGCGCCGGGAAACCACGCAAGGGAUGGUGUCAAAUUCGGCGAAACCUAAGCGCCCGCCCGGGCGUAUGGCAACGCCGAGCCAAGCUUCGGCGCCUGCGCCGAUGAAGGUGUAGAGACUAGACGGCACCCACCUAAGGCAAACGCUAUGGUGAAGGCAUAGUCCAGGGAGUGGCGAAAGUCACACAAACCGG

- Variants of: B1
- assay.summary: reverse-splicing fitness (ratio to wild type); higher = more active; in vitro selection; Mg2+ level not given
The threshold is inclusive: reverse-splicing fitness of exactly 0.01 counts as Condition met; values below receive Condition not met.

Challenge: # check: reverse-splicing fitness of A145G C150U C169G is greater than or equal to 0.01
Response given: Condition met

Challenge: Input C82U A111U A120U A145G C150U C169G U176C
Response given: Condition not met

Challenge: Input C82A A111C A120U A145G U176G
Response given: Condition not met

Challenge: Input C82G A111C A120U C150G C169U
Response given: Condition not met

Challenge: Input C82U A111U A120U A145C C150A C169G U176G
Response given: Condition not met

Challenge: Input A111C A120G A145U C150U U176C
Response given: Condition met

Challenge: Input C82U A111U A120U A145G C150A U176A
Response given: Condition not met

Challenge: Input A111U A120C A145C C150G U176A
Response given: Condition met

Challenge: Input C82A A111C C150A C169G U176G
Response given: Condition not met

Challenge: Input C82U A111C A145G C169A U176G
Response given: Condition not met

Challenge: Input C82G A120G A145G C169G U176G
Response given: Condition not met

Challenge: Input A111C C150A C169G U176G
Response given: Condition not met

Challenge: Input C82G A111G A120G A145U C150A U176A
Response given: Condition met

Challenge: Input A111U A120G A145G U176A
Response given: Condition met

Challenge: Input A111C A120C A145C C169U U176A
Response given: Condition met

Challenge: Input C82U A111U A120G A145U C150G C169G U176G
Response given: Condition not met

Challenge: Input C82G A111C A145C C150G C169A U176G
Response given: Condition not met

Challenge: Input A111U A145U C150G U176C
Response given: Condition met

Challenge: Input C82G A111C A120C A145G C150G C169G U176C
Response given: Condition met

Challenge: Input A111U A120C A145U C150A C169U U176C
Response given: Condition met

Challenge: Input C82G A111G A145C C150G C169G
Response given: Condition not met

Challenge: Input C82U A111G A120C A145G C169G U176G
Response given: Condition not met
